Test: Inhibition of Plasmodium falciparum falcipain-2 after 12 hrs by fluorescence spectroscopy-based on-bead assay
Set-up: concentration or dose not given beside the values
Details: concentration not given here
Peptide text beside a SMILES is read from it.
inhibition values by entry
Reported metric: inhibition (%)

>>> recorded_value("CC(C)C[C@H](NC(=O)[C@@H](NC(=O)[C@H](CC(N)=O)NC(=O)/C=C/C(=O)N[C@@H](C)C(=O)NCC(=O)N[C@@H](Cc1ccccc1)C(=O)O)c1ccccc1)C(=O)N[C@H](C(N)=O)C(C)C (HELM PEPTIDE1{[C[C@H](NC(=O)/C=C/C(=O)[*:2])C(=O)NCC(=O)N[C@@H](Cc1ccccc1)C(=O)O].N.[Phg].L.V.[am]}$$$$V2.0)")
55
>>> recorded_value("CC(=O)NC[C@H](NC(=O)/C=C/C(=O)N[C@@H](C)C(=O)NCC(=O)N[C@@H](Cc1ccccc1)C(=O)O)C(=O)N[C@@H](Cc1ccccc1)C(=O)N[C@H](C(=O)N[C@H](C(N)=O)C(C)C)C(C)C (HELM PEPTIDE1{[C[C@H](NC(=O)/C=C/C(=O)[*:2])C(=O)NCC(=O)N[C@@H](Cc1ccccc1)C(=O)O].[O=C([C@H](CN[*:3])N[*:1])[*:2]].F.V.V.[am]}|PEPTIDE2{[ac]}$PEPTIDE1,PEPTIDE2,2:R3-1:R2$$$V2.0)")
32
>>> recorded_value("CC(C)C[C@H](NC(=O)[C@H](Cc1ccccc1)NC(=O)[C@H](Cc1ccccc1)NC(=O)/C=C/C(=O)NCC(=O)NCC(=O)N[C@@H](Cc1ccccc1)C(=O)O)C(=O)N[C@H](C(N)=O)C(C)C (HELM PEPTIDE1{[O=C(/C=C/C(=O)[*:2])NCC(=O)NCC(=O)N[C@@H](Cc1ccccc1)C(=O)O].F.F.L.V.[am]}$$$$V2.0)")
41
>>> recorded_value("CC(C)C[C@H](NC(=O)[C@H](C)NC(=O)/C=C/C(=O)NCC(=O)NCC(=O)N[C@@H](Cc1ccccc1)C(=O)O)C(=O)N[C@H](C(=O)N[C@H](C(N)=O)C(C)C)C(C)C (HELM PEPTIDE1{[O=C(/C=C/C(=O)[*:2])NCC(=O)NCC(=O)N[C@@H](Cc1ccccc1)C(=O)O].A.L.V.V.[am]}$$$$V2.0)")
29
>>> recorded_value("CC(=O)NC[C@H](NC(=O)/C=C/C(=O)NCC(=O)NCC(=O)N[C@@H](Cc1ccccc1)C(=O)O)C(=O)N[C@H](C(=O)N[C@@H](CC(C)C)C(=O)N[C@H](C(N)=O)C(C)C)c1ccccc1 (HELM PEPTIDE1{[O=C(/C=C/C(=O)[*:2])NCC(=O)NCC(=O)N[C@@H](Cc1ccccc1)C(=O)O].[O=C([C@H](CN[*:3])N[*:1])[*:2]].[Phg].L.V.[am]}|PEPTIDE2{[ac]}$PEPTIDE1,PEPTIDE2,2:R3-1:R2$$$V2.0)")
38
